Origin of measurements: PubChem BioAssay AID2501

protocol.details: counter assay for TAg ATPase ADP read-out – biochemical, ADP-Hunter, fluorescence, counter-screen (AID 2501);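 further: purified T antigen ATPase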
experimental.conditions: series mostly up to 100 µM
Hit rate of the full screen: of about 2,200 compounds, about 1,200 (55%) were called active. Cut-off not given; nearly all actives show IC50 up to about 92 µM. The set was probably picked from earlier hits. Some of the results follow.
Classes used: class 1 for active, class 0 for inactive

INSERT INTO assay_data (molecule, assigned_category) VALUES
  ('Cn1ccnc1SCC(=O)Nc1cccc(C(F)(F)F)c1', 'class 0'),
  ('CCCCn1nnnc1SCC(=O)Nc1ccc(N(C)C)cc1', 'class 1'),
  ('Brc1ccc(-c2n(-c3ccccn3)c3ccccc3[n+]2-c2ccccn2)cc1', 'class 0'),
  ('COc1cc(/C=C2/C(=O)NN(c3ccc(Cl)cc3)C2=O)ccc1OC(=O)c1ccco1', 'class 1'),
  ('O=c1[nH]c2ccccc2n2c(-c3ccccc3)nnc12', 'class 0'),
  ('COc1cc(/C=C2/C(=O)NN(c3cccc(C)c3)C2=O)ccc1OC(=O)c1ccco1', 'class 1'),
  ('COc1cccc(CN2CCNC(=O)C2CC(=O)NCc2cn3ccccc3n2)c1OC (stereo unspecified)', 'class 0'),
  ('O=C1CC(N2CCN(c3ccc(O)cc3)CC2)C(=O)N1Cc1cccs1 (stereo unspecified)', 'class 1'),
  ('O=C(C1=C[C@@H](c2ccc(Br)cc2)C[C@@H](OCCCCO)O1)N1CCOCC1', 'class 0'),
  ('Nn1c(SCC(=O)NC(=O)Nc2ccc3c(c2)OCCO3)nnc1C1CC1', 'class 0'),
  ('O=C(OCCCN1CCOCC1)c1ccc(O)c(O)c1', 'class 1');
